target-or-test-system: D(3) dopamine receptor (Homo sapiens) (UniProt P35462)
Sequence (P35462 whole entry, looked up): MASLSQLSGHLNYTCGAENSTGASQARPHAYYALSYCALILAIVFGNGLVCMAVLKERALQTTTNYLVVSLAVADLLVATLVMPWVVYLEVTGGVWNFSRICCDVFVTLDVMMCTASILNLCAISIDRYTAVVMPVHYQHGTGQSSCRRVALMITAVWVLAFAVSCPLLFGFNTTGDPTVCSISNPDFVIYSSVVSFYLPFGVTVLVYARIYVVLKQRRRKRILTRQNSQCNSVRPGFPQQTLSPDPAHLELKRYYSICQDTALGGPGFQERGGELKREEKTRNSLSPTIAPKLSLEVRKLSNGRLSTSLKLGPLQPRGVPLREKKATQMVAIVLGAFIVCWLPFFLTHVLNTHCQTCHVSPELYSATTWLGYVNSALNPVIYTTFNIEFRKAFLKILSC
measurement-description: qHTS of D3 Dopamine Receptor Antagonist: qHTS; note: % is set by controls: 0 for no effect and ±100 for the full control effect
study-conditions: D3R cells, DiscoveRx beta-arrestin luminescence, antagonist mode
The whole screen tested about 360,000 compounds, of which about 9,100 (2.5%) were called active. Inconclusive results (about 4%) are left out. Cut-off read from the data, not from the text of the source: active = max response below about -50%; inconclusive = no clear call, values can overlap the other calls; inactive = above that. The sample holds actives, similar compounds and a random draw of the others, so the mix is not that of the screen.
Field 'call' accepts 1 = active, 0 = inactive

Consider the worked cases shown below.
# compound, target-or-test-system, label
rows = [
    ("Clc1ccc(-n2nnnc2-c2cnc(-c3ccccn3)nc2-c2cccs2)cc1", "D(3) dopamine receptor (Homo sapiens) (UniProt P35462)", 1),
    ("N#Cc1ccc(CSc2nnc(-c3ccccn3)n2-c2ccc(Cl)cc2)cc1", "D(3) dopamine receptor (Homo sapiens) (UniProt P35462)", 0),
    ("CC(NC(=S)Nc1ccccc1)C1COc2ccccc2O1 (stereo unspecified)", "D(3) dopamine receptor (Homo sapiens) (UniProt P35462)", 0),
]

Look up the recorded call for O=C(CCCN1CCc2[nH]c3ccc(F)cc3c2C1)c1ccc(F)cc1 in this test.
1

Look up the recorded call for Cc1noc(C)c1-c1ccc(C(=O)NCc2ccncc2)c2occc12 in this test.
0

Look up the recorded call for CCC(=O)c1ccc(OCC(=O)N(CC)CC2COc3ccccc3O2)cc1 (stereo unspecified) in this test.
0

* * *

target-or-test-system: D(3) dopamine receptor (Homo sapiens)
measurement-description: qHTS of D3 Dopamine Receptor Antagonist: qHTS; note: % is set by controls: 0 for no effect and ±100 for the full control effect
study-conditions: D3R cells, DiscoveRx beta-arrestin luminescence, antagonist mode; active compounds read low
Hit rate of the full screen: of about 360,000 compounds, about 9,100 (2.5%) were called active. Roughly 4% stayed inconclusive and do not appear here. Only a selection was taken, and actives are over-represented in it overall.
observable: max response, negative = inhibition (%)
Report the value in % with no unit label.

The recorded max response, negative = inhibition for CC1Cc2[nH][nH]c(=O)c2C(C2CCCC2)O1 (centres undefined) is 0

The recorded max response, negative = inhibition for COc1ccc(CN2CCC(C)(Oc3cccc(F)c3)C2)c2ccccc12 (centres undefined) is -6.36

The recorded max response, negative = inhibition for COc1ccc(CCNC(=O)c2cc3sccc3n2C)cc1OC is -72

The recorded max response, negative = inhibition for COc1cccc(-c2cc3nc(NCCOc4ccccc4Cl)n(C)c(=O)c3s2)c1 is 18.3

The recorded max response, negative = inhibition for CSc1nnc(NC(=O)c2nc(S(=O)(=O)Cc3ccc(C)cc3)ncc2Cl)s1 is -83.3

The recorded max response, negative = inhibition for CC(C)CN1CCC1(C)C(=O)Nc1ccc(OC(F)F)cc1 (centres undefined) is 12.7

The recorded max response, negative = inhibition for Cn1c(C(=O)NCCCN2CCCCC2)cc2sccc21 is -17.4

The recorded max response, negative = inhibition for CC1(C(=O)NS(=O)(=O)c2ccccc2)CCN1C(=O)C/C=C/c1ccccc1 (centres undefined) is -9.32

The recorded max response, negative = inhibition for CC1(C(=O)O)CCN1C(=O)/C=C/c1ccccc1 (centres undefined) is 0

The recorded max response, negative = inhibition for COc1ccc(CC2(CO)CCN(Cc3cnn(C)c3)CC2)cc1 is 4.38

The recorded max response, negative = inhibition for Cc1cc(Nc2ccc(C)c(C)c2)n2ncnc2n1 is -15.7

The recorded max response, negative = inhibition for COC(=O)c1[nH]c2ccccc2c1NC(=O)CN1CCCc2ccccc21 is 9.03

The recorded max response, negative = inhibition for Cc1nnc(NC(=O)CCCOc2ccccc2)s1 is 14.4

The recorded max response, negative = inhibition for O=C(/C=C/[C@H]1O[C@@H](n2ccc(=O)[nH]c2=O)[C@H](O)[C@@H]1O)NCc1ccccn1 is 9.97

The recorded max response, negative = inhibition for Cc1ccccc1-c1nc(NC(C)C)nc2cc(-c3ccccc3)sc12 is 21.7

The recorded max response, negative = inhibition for O=C(Nc1ccc(F)cc1)c1ccc(S(=O)(=O)NCc2cccnc2)cc1 is 8.92

The recorded max response, negative = inhibition for CC(C)Oc1cc(F)ccc1-c1cc(C(=O)Nc2ccc(F)cc2)[nH]n1 is -13.9

* * *

In this section we review reported max response, negative = inhibition values for a set of molecules.
target-or-test-system: D(3) dopamine receptor (Homo sapiens) (UniProt P35462)
measurement-description: qHTS of D3 Dopamine Receptor Antagonist: qHTS; note: % is set by controls: 0 for no effect and ±100 for the full control effect
study-conditions: D3R cells, DiscoveRx beta-arrestin luminescence, antagonist mode; active compounds read low
Out of some 360,000 compounds screened, about 9,100 (2.5%) were called active. Another 4% or so got no clear call; they are omitted. Only a selection was taken, and actives are over-represented in it overall.
Report the value in % with no unit label.

# molecule, quantitative-result
data = [
    ("O=S1(=O)C[C@@H](N2CCN(CCO)CC2)[C@H](COCc2ccccc2)N1", 1.72),
]

The recorded max response, negative = inhibition for Nc1nc2cc(Cl)ccc2n1N is 0

The recorded max response, negative = inhibition for CCCCCCCCN1C(=O)[C@H](CC(=O)NCC23CC4CC(CC(C4)C2)C3)C[C@@]2(C(=O)OC)CCCCC=C12 is 9.16

The recorded max response, negative = inhibition for Cc1cc2nc(-c3ccc(Cl)cc3)c(Cc3cccc(F)c3)n2c(C)c1Br is 0

The recorded max response, negative = inhibition for CCOP(=O)(OCC)C(Cc1ccccc1)N=C(c1ccccc1)c1ccccc1 (stereo not given) is -6.96

The recorded max response, negative = inhibition for N=c1c2c3c(sc2ncn1CCCN1CCOCC1)CCCCC3 is 8.56

The recorded max response, negative = inhibition for S=c1[nH]nc2c3c4c(sc3ncn12)CCCC4 is -92.7

The recorded max response, negative = inhibition for CC(C)(C)N1C(=O)c2c(C(=O)OCc3ccccc3)[nH]c(-c3ccccc3)c2C1=O is -3.03

The recorded max response, negative = inhibition for COc1ccc(NC(=O)Nc2cccc3cccnc23)cc1 is -66.6

The recorded max response, negative = inhibition for COc1ccc(S(=O)(=O)N2CCC(C(=O)NCCC(=O)NCCc3cccc(F)c3)CC2)cc1 is 9.47

* * *

target-or-test-system: D(3) dopamine receptor (Homo sapiens) (UniProt P35462)
measurement-description: qHTS of D3 Dopamine Receptor Antagonist: qHTS; note: % is set by controls: 0 for no effect and ±100 for the full control effect
study-conditions: D3R cells, DiscoveRx beta-arrestin luminescence, antagonist mode; active compounds read low
Among all 360,000 compounds or so, about 9,100 (2.5%) were called active. Not shown: some 4% with an inconclusive outcome. The sample as a whole holds a higher share of actives than the screen did.
observable: max response, negative = inhibition (%)
Report the value in % with no unit label.

# compound, quantitative-result
measured = [
    ("COc1ccccc1N1CCN(CCCCOc2ccc(F)cc2)CC1", -78.2),
    ("OCCN1CCN(C(=S)c2ccc(-c3ccccc3)cc2)CC1", -6.47),
    ("CCOC(=O)C1(CC2CCCCO2)CCN(Cc2nc(-c3cccs3)oc2C)CC1 (stereo not given)", -99),
    ("Cc1cc(C)n(CC(O)CN(c2ccccc2)S(=O)(=O)c2ccc3ccccc3c2)n1 (stereo not given)", 10.5),
    ("COc1ccc(CC(N)c2csc(NC(=O)Nc3ccc(C(C)C)cc3)n2)cc1 (stereo not given)", -12.1),
    ("COc1ccc(CNC(=O)c2ccc(-c3cccnc3)c3ccoc23)cc1OC", 57.4),
    ("O=C(NCc1cccnc1)c1cc(C2CCCN(C(=O)CCCc3ccccc3)C2)on1 (stereo not given)", 33.8),
    ("O=C1NN(c2ccccc2)C(=O)/C1=C/c1ccc(-c2cccc(C(=O)O)c2)o1", -54.9),
]

Let us move to another entry and its max response, negative = inhibition.
D(3) dopamine receptor (Homo sapiens) (UniProt P35462) max response, negative = inhibition of O=c1c2ccccc2ncn1CCCCOc1ccccc1F is -15.9

* * *

target-or-test-system: D(3) dopamine receptor (Homo sapiens) (UniProt P35462)
measurement-description: qHTS of D3 Dopamine Receptor Antagonist: qHTS; note: % is set by controls: 0 for no effect and ±100 for the full control effect
study-conditions: D3R cells, DiscoveRx beta-arrestin luminescence, antagonist mode
About 9,100 (2.5%) of roughly 360,000 compounds were called active. Roughly 4% stayed inconclusive and do not appear here. Cut-off read from the data, not from the text of the source: active = max response below about -50%; inconclusive = no clear call, values can overlap the other calls; inactive = above that. This is one part of a sample in which actives are shown more often than they occur.
Field 'call' accepts Y for active, N for inactive

Consider the worked cases shown below.
# compound, target-or-test-system, label
data = [
    ("CNC(=O)C(NC(=O)c1ccccc1)=C(C)C", "D(3) dopamine receptor (Homo sapiens) (UniProt P35462)", "N"),
    ("CC(=O)N(C1=C(Cl)C(=O)c2ccccc2C1=O)c1ccc(C(=O)O)cc1", "D(3) dopamine receptor (Homo sapiens) (UniProt P35462)", "N"),
    ("COc1ccc(S(=O)(=O)N/N=C\\c2ccc(OC)c(COc3ccc(C)cc3[N+](=O)[O-])c2)cc1", "D(3) dopamine receptor (Homo sapiens) (UniProt P35462)", "Y"),
    ("CC(C)=C(NC(=O)c1ccccc1)C(=O)N/N=C(\\C)c1ccccc1O", "D(3) dopamine receptor (Homo sapiens) (UniProt P35462)", "Y"),
]

Look up the recorded call for Cc1cccc(C)c1NC(=O)C(c1cccc(F)c1)N1CCN(C)CC1 (stereo unspecified) in this test.
N

Look up the recorded call for O=C1C(Cl)=C(Oc2ccccc2)C(=O)c2ccccc21 in this test.
Y

Look up the recorded call for COc1ccc(/C(C)=N\NC(=O)c2ccc(-c3ccccc3)cc2)c(F)c1 in this test.
N

Look up the recorded call for O=C(Nc1sc2c(c1C(=O)O)CCC2)c1ccccc1F in this test.
N

Look up the recorded call for COc1ccc(C(O)c2nc(-c3ccc4c(c3)OCO4)cs2)cc1 (stereo unspecified) in this test.
N

Look up the recorded call for O=[N+]([O-])c1ccccc1S(=O)(=O)Nc1cccc2cccnc12 in this test.
Y

Look up the recorded call for COC(=O)c1ccc2nc(-c3ccccc3)c(Cc3ccc(OC)cc3C)n2c1 in this test.
N
